B1: TRIM55 (parent)
chain: FQASNPYLPTRGGTTMASGGRFRC

Variants of: B1
assay.method.text: protein stability index of a GFP-peptide fusion (GPS, HEK-293T) (PSI 1-6); higher = more stable;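 further: lentivirally expressed fusions sorted by FACS into six bins by GFP to DsRed ratio, PSI derived from sequencing read proportions per bin multiplied by bin number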
condition: c terminus: a fixed tail appended
Please use true whenever protein stability index is not below 2, and false whenever it is.

hey, is protein stability index for this one >= 2? T14P
true

Decide: is the reported value of protein stability index for P9Y equal to or greater than 2?
false

Determine whether this variant has protein stability index no lower than 2: P9F
false

Could you verify whether the entry A3K shows protein stability index of no less than 2?
false

Kindly determine if protein stability index recorded for G13F is above or exactly 2.
false

In plain terms: is recorded protein stability index at least 2 for L8Q ?
true

Form field: protein stability index at least 2? Entry: F22M
true

Is it the case that A3Q has protein stability index reaching or exceeding 2?
true

Is it the case that R23M has protein stability index reaching or exceeding 2?
false
